- Test system: A498
- assay details: NCI tumour cell line growth inhibition, 48 h
Calls of active or inactive are those of the source. Cut-off read from the data, not from the text of the source: active = GI50 up to about 1.1 µM and inactive = higher.
Choose the fitting class; nothing outside true = active, false = inactive is accepted.

// known answers, use as guide
{"molecule": "CCC(=O)Nc1ccc(NC(C#N)c2cccc(Oc3ccccc3)c2)cc1 (centres undefined)", "discrete label": "false"}
{"molecule": "COC(=O)c1cc(NC(=O)c2cc(NC(=O)c3cc([N+](=O)[O-])cn3C)cn2C)cn1C", "discrete label": "false"}
{"molecule": "Nc1nc(=O)[nH]c2c1cnn2COCCO", "discrete label": "false"}
{"molecule": "O=S(=O)(O)SC/C=C\\CSS(=O)(=O)O", "discrete label": "false"}
{"molecule": "COc1ccc(-c2nc3ccc(C)cc3o2)c(OC)c1", "discrete label": "false"}
{"molecule": "O=S1(=O)c2ccccc2N2CCCc3cc(Cl)cc1c32", "discrete label": "false"}

In the following, a different molecule is considered.
Problem: Recorded call for "Oc1ccc(Br)cc1/C=N/c1cccc(C(F)(F)F)c1" ?
Solution: false

---

- System: OVCAR-3
- assay details: NCI tumour cell line growth inhibition, 48 h
Calls of active or inactive are those of the source. No stated cut-off is given here; in the data, active = GI50 up to about 1.1 µM and inactive = higher.
recorded endpoint: GI50

The cases that follow already have their GI50 on record.
{"compound": "COc1ccc2ccccc2c1C1=NC(C)(C)CO1", "GI50": "> 100 µM (inactive)"}
{"compound": "CC1=C(C(=O)OC2CC3CCC2(C)C3(C)C)C2Nc3ccccc3N(C)C2O1 (stereo unspecified)", "GI50": "2.24 µM (inactive)"}
{"compound": "COCC(O)Cn1ccnc1[N+](=O)[O-] (stereo unspecified)", "GI50": "> 100 µM (inactive)"}
{"compound": "CCOC(=O)c1ncn2c1[nH]c(=S)c1ccccc12", "GI50": "> 100 µM (inactive)"}

Problem: Item "N#Cc1ccc(OCCSCCCCCCCCCCSCCOc2ccc(C#N)cc2)cc1" has what recorded GI50?
Solution: > 100 µM (inactive)

Problem: Item "O=C(CO[N+](=O)[O-])OC/C=C/c1ccccc1" has what recorded GI50?
Solution: > 100 µM (inactive)

---

- System: LOX IMVI
- assay details: NCI tumour cell line growth inhibition, 48 h
Activity calls are given as the source filed them. No stated cut-off is given here; in the data, active = GI50 up to about 1.1 µM and inactive = higher.
The entries below are paired with their reported GI50.

Problem: Item "COC(=O)N1CC[C@@H]2CCC=C(c3cccc4c3OCO4)[C@@H]21" has what recorded GI50?
Solution: > 100 µM (inactive)

Problem: Item "Cc1[nH]c2c(c1C)S(=O)(=O)c1cc3ccccc3nc1N2" has what recorded GI50?
Solution: 10.6 µM (inactive)

Problem: Item COC(=O)CC1C[C@H](C#N)N(C(=O)c2ccccc2)C[C@@H]1CC[N+](=O)[O-] (some centres undefined) has what recorded GI50?
Solution: > 100 µM (inactive)

Problem: Item "CC(C)C/N=C(\N)N=C(N)N" has what recorded GI50?
Solution: > 100 µM (inactive)

Problem: Item "COc1ccc(O[C@H](CO)C[C@@H]2COC(C)(C)O2)cc1" has what recorded GI50?
Solution: > 100 µM (inactive)

Problem: Item O=C1CC(n2ccnc2)c2c(Cl)sc(Cl)c21 (centres undefined) has what recorded GI50?
Solution: 6.3 µM (inactive)

Problem: Item CN1C(=O)C(O)CC1c1cccc(F)c1 (centres undefined) has what recorded GI50?
Solution: > 100 µM (inactive)

Problem: Item CO[C@]12CC(=O)C3(C(C[C@H]4CC5CC=C6C[C@@H](OC(C)=O)CC[C@]6(OC(C)=O)C5C[C@@]43C)C1)C1C[C@H]3[C@@H]4CC=C5C[C@@H](OC(C)=O)CC[C@]5(OC(C)=O)[C@H]4CC[C@]3(C)C12 (some centres undefined) has what recorded GI50?
Solution: 18.9 µM (inactive)

Problem: Item "COc1ccc2c(C(=O)c3cn(CCN4CCOCC4)c4ccccc34)cccc2c1" has what recorded GI50?
Solution: 22.3 µM (inactive)
